meta.source: the supplement of paper PMC10567573

B1: ZNF232 (parent)
chain: FPKSEQVYLHFLSVVTEDGPEPKD

Variants of: B1
Method description: protein stability index of a GFP-peptide fusion (GPS, HEK-293T) (PSI 1-6); higher = more stable;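 also: lentivirally expressed fusions sorted by FACS into six bins by GFP to DsRed ratio, PSI derived from sequencing read proportions per bin multiplied by bin number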
Experimental conditions: c terminus: a fixed tail appended
We use 2 as the dividing line for protein stability index: on or above the line is true, below is false.

# check: protein stability index of P20F is greater than or equal to 2
false

# check: protein stability index of P20G is greater than or equal to 2
true

# check: protein stability index of E21T is greater than or equal to 2
true

# check: protein stability index of V15I is greater than or equal to 2
false

# check: protein stability index of F11S is greater than or equal to 2
true

# check: protein stability index of G19E is greater than or equal to 2
true

# check: protein stability index of E5C is greater than or equal to 2
false

# check: protein stability index of V15K is greater than or equal to 2
true

# check: protein stability index of H10R is greater than or equal to 2
true

# check: protein stability index of E17Q is greater than or equal to 2
false

# check: protein stability index of H10G is greater than or equal to 2
true

# check: protein stability index of V15M is greater than or equal to 2
true

# check: protein stability index of V15W is greater than or equal to 2
false

# check: protein stability index of E21V is greater than or equal to 2
true

# check: protein stability index of Y8T is greater than or equal to 2
true

# check: protein stability index of V7T is greater than or equal to 2
true

# check: protein stability index of K23A is greater than or equal to 2
true

# check: protein stability index of K3E is greater than or equal to 2
true

# check: protein stability index of K23H is greater than or equal to 2
false

# check: protein stability index of E5L is greater than or equal to 2
true

# check: protein stability index of F11R is greater than or equal to 2
true

# check: protein stability index of F1G is greater than or equal to 2
true

# check: protein stability index of E17R is greater than or equal to 2
false

# check: protein stability index of S4I is greater than or equal to 2
true

# check: protein stability index of L12G is greater than or equal to 2
true

# check: protein stability index of Q6A is greater than or equal to 2
true

# check: protein stability index of L12C is greater than or equal to 2
true

# check: protein stability index of E21A is greater than or equal to 2
true

# check: protein stability index of V15S is greater than or equal to 2
true

# check: protein stability index of E17Y is greater than or equal to 2
true

# check: protein stability index of L9Y is greater than or equal to 2
true

# check: protein stability index of E5V is greater than or equal to 2
true

# check: protein stability index of L9S is greater than or equal to 2
true

# check: protein stability index of Y8L is greater than or equal to 2
true

# check: protein stability index of K23Y is greater than or equal to 2
false

# check: protein stability index of P2E is greater than or equal to 2
true

# check: protein stability index of V14L is greater than or equal to 2
true

# check: protein stability index of E5T is greater than or equal to 2
false

# check: protein stability index of Y8E is greater than or equal to 2
true

# check: protein stability index of V14K is greater than or equal to 2
true

# check: protein stability index of D24V is greater than or equal to 2
true

# check: protein stability index of V7P is greater than or equal to 2
true
